Attribution: patent US20250179187A1

Items are presented alongside their recorded koff.
Measurement target: T1, recombinant human PD-L2 (human PD-L2 antigen) (human, UniProt Q9BQ51 20-219, limits assumed)
T1 construct: The Biacore analyte and the ELISA antigen are only called human PD-L2 antigen / recombinant hPD-L2; Whole entry named; also called hPD-L2; recombinant hPD-L2
T1 sequence (looked up): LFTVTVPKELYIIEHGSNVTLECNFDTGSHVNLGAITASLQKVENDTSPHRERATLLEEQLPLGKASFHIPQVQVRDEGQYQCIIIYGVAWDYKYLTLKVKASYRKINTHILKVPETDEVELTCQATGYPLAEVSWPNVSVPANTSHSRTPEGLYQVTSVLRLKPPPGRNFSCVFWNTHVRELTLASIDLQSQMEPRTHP
Assay summary: SPR (Biacore 8K), single cycle kinetics, antibody in culture supernatant, human PD-L2 antigen
// units = s⁻¹; emit number, no label

Check out these entries, answers already filled in.
- VH2/VK3 (antibody, V domains shown, hIgG1 backbone, CHO expressed) VH: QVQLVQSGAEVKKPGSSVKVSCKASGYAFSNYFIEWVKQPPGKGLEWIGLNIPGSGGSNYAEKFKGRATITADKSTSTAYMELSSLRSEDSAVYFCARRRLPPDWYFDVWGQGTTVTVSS VL: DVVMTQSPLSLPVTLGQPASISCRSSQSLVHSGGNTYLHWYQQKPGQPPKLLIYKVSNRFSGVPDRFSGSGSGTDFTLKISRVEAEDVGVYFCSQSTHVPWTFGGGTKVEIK: 0.000414
- VH7/VK3 (antibody, V domains shown, hIgG1 backbone, CHO expressed) VH: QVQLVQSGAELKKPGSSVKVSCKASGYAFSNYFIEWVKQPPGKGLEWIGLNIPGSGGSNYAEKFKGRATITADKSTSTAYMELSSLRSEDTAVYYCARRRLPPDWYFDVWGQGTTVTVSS VL: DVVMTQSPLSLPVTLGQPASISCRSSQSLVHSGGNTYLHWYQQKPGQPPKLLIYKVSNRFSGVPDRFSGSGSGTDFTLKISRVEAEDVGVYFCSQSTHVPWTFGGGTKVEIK: 0.000344

Query: If you can, please state the reported koff value of VH6/VK1 (antibody, V domains shown, hIgG1 backbone, CHO expressed) VH: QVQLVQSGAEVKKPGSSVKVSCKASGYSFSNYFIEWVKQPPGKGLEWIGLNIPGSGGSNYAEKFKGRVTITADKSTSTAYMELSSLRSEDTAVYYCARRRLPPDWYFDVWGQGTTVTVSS VL: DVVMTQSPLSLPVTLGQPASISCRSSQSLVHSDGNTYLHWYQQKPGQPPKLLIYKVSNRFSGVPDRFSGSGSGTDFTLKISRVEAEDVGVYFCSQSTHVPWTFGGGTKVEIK .
Response: 0.000121

Query: If you can, please state the reported koff value of VH8/VK3 (antibody, V domains shown, hIgG1 backbone, CHO expressed) VH: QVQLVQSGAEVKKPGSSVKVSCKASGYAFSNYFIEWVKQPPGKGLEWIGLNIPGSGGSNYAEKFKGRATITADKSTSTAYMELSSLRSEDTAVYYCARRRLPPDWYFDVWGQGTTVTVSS VL: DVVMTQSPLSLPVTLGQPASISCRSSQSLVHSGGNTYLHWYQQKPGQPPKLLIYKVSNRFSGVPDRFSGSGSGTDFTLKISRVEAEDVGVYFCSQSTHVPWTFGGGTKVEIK .
Response: 0.000388

Query: If you can, please state the reported koff value of VH1/VK3 (antibody, V domains shown, hIgG1 backbone, CHO expressed) VH: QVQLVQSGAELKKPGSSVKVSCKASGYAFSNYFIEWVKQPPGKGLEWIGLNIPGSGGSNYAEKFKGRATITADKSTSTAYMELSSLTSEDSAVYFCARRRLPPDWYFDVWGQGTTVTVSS VL: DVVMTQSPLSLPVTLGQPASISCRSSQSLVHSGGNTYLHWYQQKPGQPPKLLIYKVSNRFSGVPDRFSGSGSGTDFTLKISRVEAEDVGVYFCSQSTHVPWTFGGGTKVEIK .
Response: 0.000365
